All values here come from ChEMBL document CHEMBL1133825.

# SYSTEM UNDER TEST: 5-hydroxytryptamine receptor 4 (Rattus norvegicus)
# Sequence (Q62758 whole entry): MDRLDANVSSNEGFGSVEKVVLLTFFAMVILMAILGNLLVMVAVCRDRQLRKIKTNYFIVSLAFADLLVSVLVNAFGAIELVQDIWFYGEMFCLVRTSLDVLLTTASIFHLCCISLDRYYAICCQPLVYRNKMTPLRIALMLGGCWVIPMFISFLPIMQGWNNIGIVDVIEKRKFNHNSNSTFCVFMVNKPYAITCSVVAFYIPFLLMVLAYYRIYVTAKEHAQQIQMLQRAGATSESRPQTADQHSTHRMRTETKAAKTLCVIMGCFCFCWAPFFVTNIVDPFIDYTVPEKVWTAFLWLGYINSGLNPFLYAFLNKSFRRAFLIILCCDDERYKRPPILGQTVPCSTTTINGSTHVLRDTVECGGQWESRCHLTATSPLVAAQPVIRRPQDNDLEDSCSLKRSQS
# METHOD DESCRIPTION: pKi against 5-hydroxytryptamine 4 receptor in rat striatum membrane
# Assay type: cell membranes
Classification scheme (Ki): interval 1: < 2 nM; interval 2: ≥ 2 nM and < 40 nM; interval 3: ≥ 40 nM

The following compounds have reported results that may help.
{"MOLECULE SMILES": "CN1CCC(OC(=O)c2cccc3nc[nH]c23)CC1", "LABEL CLASS": "interval 3"}
{"MOLECULE SMILES": "CCN1CCC(NC(=O)c2cccc3[nH]cnc23)CC1", "LABEL CLASS": "interval 3"}
{"MOLECULE SMILES": "CC(C)CN1CCC(CNC(=O)c2cc(Cl)cc3[nH]cnc23)CC1", "LABEL CLASS": "interval 1"}
{"MOLECULE SMILES": "CCCCN1CCC(CNC(=O)c2cccc3[nH]cnc23)CC1", "LABEL CLASS": "interval 2"}
{"MOLECULE SMILES": "CCCCN1CCC(CNC(=O)c2cc(Br)c([N+](=O)[O-])c3[nH]cnc23)CC1", "LABEL CLASS": "interval 3"}
{"MOLECULE SMILES": "CCCCN1CCC(NC(=O)c2cccc3nc[nH]c23)CC1", "LABEL CLASS": "interval 3"}
{"MOLECULE SMILES": "CCCCN1CCC(CNC(=O)c2cc(Br)c(N)c3nc[nH]c23)CC1", "LABEL CLASS": "interval 2"}
{"MOLECULE SMILES": "CC(C)CN1CCC(CNC(=O)c2cc(Cl)cc3c2ncn3C)CC1", "LABEL CLASS": "interval 2"}
{"MOLECULE SMILES": "CCCCN1CCC(CNC(=O)c2cc(Cl)c([N+](=O)[O-])c3nc[nH]c23)CC1", "LABEL CLASS": "interval 3"}
{"MOLECULE SMILES": "CS(=O)(=O)NCCN1CCC(CNC(=O)c2cccc3[nH]cnc23)CC1", "LABEL CLASS": "interval 2"}

Attention now turns to another entry.
Record CCCCN1CCC(CNC(=O)c2cc(Br)cc3[nH]cnc23)CC1 — which class?
interval 1
